Where these numbers come from: the kinase profiling compilation of Christmann-Franck et al. (2016)

# system.name: STK38 (human) (UniProt Q15208)
# Sequence (Q15208 whole entry, looked up): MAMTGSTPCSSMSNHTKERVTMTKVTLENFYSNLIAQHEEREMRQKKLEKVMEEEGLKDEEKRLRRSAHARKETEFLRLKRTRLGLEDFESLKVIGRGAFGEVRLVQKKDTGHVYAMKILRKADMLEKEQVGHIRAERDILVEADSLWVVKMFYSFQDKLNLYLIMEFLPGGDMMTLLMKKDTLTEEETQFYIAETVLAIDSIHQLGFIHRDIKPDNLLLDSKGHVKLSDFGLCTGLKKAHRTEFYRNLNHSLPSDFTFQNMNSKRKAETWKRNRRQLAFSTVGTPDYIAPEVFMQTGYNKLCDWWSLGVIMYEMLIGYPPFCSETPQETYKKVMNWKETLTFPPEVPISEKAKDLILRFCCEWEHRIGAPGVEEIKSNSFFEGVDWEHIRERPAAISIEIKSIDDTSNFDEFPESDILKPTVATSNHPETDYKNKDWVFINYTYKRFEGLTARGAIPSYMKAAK
# method: KINOMEscan competition binding
# condition.summary: compound 10.0 µM
readout.label: kinase still bound, per cent of control (%)
Field format: number, assumed %, no unit text.

Solved cases (4 shown):
CCN(CC)CCCCNc1ncc2c(n1)N(C)C(=O)N(c1c(Cl)c(OC)cc(OC)c1Cl)C2
100
O=C1NC(=O)/C(=C/c2ccc3nccc(-c4ccncc4)c3c2)S1
61
CS(=O)(=O)N1CCN(Cc2cc3nc(-c4cccc5[nH]ncc45)nc(N4CCOCC4)c3s2)CC1
100
O=c1cc(N2CCOCC2)oc2c(-c3cccc4c3sc3ccccc34)cccc12
100

Read the next record carefully.
Any idea what kinase still bound, per cent of control was measured for C[C@@H](Oc1cc(-c2cnn(C3CCNCC3)c2)cnc1N)c1c(Cl)ccc(F)c1Cl ? 68

---

# system.name: LCK (human)
# method: KINOMEscan competition binding
# condition.summary: compound 10.0 µM
readout.label: kinase still bound, per cent of control (%)
Field format: number, assumed %, no unit text.

Solved cases (3 shown):
COc1cc2ncnc(-n3nc(-c4ccccn4)nc3N)c2cc1OC
5.2
COc1cc2ncn(-c3cc(OCc4ccccc4C(F)(F)F)c(C(N)=O)s3)c2cc1OC
34
CCN1CCN(C(=O)Cc2ccc(Nc3ncc(F)c(Nc4ccc(C(=O)Nc5ccccc5Cl)cc4)n3)cc2)CC1
6.6

Any idea what kinase still bound, per cent of control was measured for C=CC(=O)Nc1cc(-n2c(=O)ccc3cnc4ccc(-c5cn[nH]c5)cc4c32)ccc1C ? 64

Any idea what kinase still bound, per cent of control was measured for COc1cc(C(=O)N2CCC(N3CCN(C)CC3)CC2)ccc1Nc1ncc2c(n1)N(C)c1ccccc1C(=O)N2C ? 100

---

# system.name: TYK2 JH1 catalytic (human) (UniProt P29597)
# Sequence (P29597 whole entry, looked up): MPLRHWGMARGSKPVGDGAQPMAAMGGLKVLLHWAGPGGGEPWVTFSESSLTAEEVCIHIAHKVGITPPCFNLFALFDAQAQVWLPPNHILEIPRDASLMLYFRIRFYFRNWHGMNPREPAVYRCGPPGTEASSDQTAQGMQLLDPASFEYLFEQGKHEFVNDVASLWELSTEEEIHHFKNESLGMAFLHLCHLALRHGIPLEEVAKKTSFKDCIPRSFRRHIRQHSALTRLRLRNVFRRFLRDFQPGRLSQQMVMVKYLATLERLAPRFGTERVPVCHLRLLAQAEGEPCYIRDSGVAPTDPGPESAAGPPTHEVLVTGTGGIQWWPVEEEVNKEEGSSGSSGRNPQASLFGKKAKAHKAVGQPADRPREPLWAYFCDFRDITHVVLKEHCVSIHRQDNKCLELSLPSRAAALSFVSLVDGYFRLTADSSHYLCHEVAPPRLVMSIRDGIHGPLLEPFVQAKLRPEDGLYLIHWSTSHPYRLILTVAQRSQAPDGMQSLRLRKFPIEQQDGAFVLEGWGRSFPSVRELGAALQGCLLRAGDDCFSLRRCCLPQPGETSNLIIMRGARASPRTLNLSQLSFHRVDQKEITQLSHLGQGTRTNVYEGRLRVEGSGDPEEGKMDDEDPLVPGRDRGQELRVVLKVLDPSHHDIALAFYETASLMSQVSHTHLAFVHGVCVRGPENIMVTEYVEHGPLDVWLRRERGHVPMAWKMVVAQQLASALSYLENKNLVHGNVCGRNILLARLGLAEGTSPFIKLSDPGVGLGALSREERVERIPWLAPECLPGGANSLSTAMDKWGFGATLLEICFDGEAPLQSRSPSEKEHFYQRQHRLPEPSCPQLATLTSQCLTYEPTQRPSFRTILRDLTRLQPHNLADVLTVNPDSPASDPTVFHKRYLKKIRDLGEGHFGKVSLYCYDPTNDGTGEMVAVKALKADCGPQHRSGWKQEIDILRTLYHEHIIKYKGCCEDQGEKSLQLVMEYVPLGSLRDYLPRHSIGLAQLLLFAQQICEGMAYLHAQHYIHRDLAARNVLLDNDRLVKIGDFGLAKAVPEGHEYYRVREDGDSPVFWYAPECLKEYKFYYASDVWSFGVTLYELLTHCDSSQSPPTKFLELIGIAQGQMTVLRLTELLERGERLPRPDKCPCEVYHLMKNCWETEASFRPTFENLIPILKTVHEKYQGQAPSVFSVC
# method: KINOMEscan competition binding
# condition.summary: compound 10.0 µM
Flag rule - kinase still bound, per cent of control less than 40% flags rule met; the remaining entries get rule not met.

COc1ccc(N(C(=O)Oc2c(C)cccc2C)c2ccnc(Nc3ccc(N4CCN(C)CC4)cc3)n2)c(OC)c1
rule not met
O=C(Nc1cccc(Nc2ncc(Br)c(NCCc3cnc[nH]3)n2)c1)N1CCCC1
rule met
COc1cc2ncnc(-n3nc(-c4ccccn4)nc3N)c2cc1OC
rule met
COCC(=O)NC/C=C/c1ccc2ncnc(Nc3ccc(Oc4ccc(C)nc4)c(C)c3)c2c1
rule not met
CCN(CC)CCCCNc1ncc2cc(-c3cc(OC)cc(OC)c3)c(NC(=O)NC(C)(C)C)nc2n1
rule not met

Lab note: confirm whether the reported kinase still bound, per cent of control for this compound is below 40%, equality not counting. compound: Cc1n[nH]c2ccc(-c3cncc(OC[C@@H](N)Cc4c[nH]c5ccccc45)c3)cc12 rule not met

Lab note: confirm whether the reported kinase still bound, per cent of control for this compound is below 40%, equality not counting. compound: C[C@@H](Oc1cc(-c2cnn(C3CCNCC3)c2)cnc1N)c1c(Cl)ccc(F)c1Cl rule met

Lab note: confirm whether the reported kinase still bound, per cent of control for this compound is below 40%, equality not counting. compound: CS(=O)(=O)N1CCN(Cc2cc3nc(-c4cccc5[nH]ncc45)nc(N4CCOCC4)c3s2)CC1 rule not met

Lab note: confirm whether the reported kinase still bound, per cent of control for this compound is below 40%, equality not counting. compound: N#CCNC(=O)c1ccc(-c2ccnc(Nc3ccc(N4CCOCC4)cc3)n2)cc1 rule met

Lab note: confirm whether the reported kinase still bound, per cent of control for this compound is below 40%, equality not counting. compound: COc1cc(C(=O)N2CCC(N3CCN(C)CC3)CC2)ccc1Nc1ncc2c(n1)N(C)c1ccccc1C(=O)N2C rule not met

Lab note: confirm whether the reported kinase still bound, per cent of control for this compound is below 40%, equality not counting. compound: C=CC(=O)Nc1ccc(CN(C(=O)Nc2c(Cl)c(OC)cc(OC)c2Cl)c2cc(Nc3ccc(N4CCN(C)CC4)cc3)ncn2)cc1 rule met

Lab note: confirm whether the reported kinase still bound, per cent of control for this compound is below 40%, equality not counting. compound: O=c1cc(N2CCOCC2)oc2c(-c3cccc4c3sc3ccccc34)cccc12 rule not met

Lab note: confirm whether the reported kinase still bound, per cent of control for this compound is below 40%, equality not counting. compound: COc1cc2ncn(-c3cc(OCc4ccccc4C(F)(F)F)c(C(N)=O)s3)c2cc1OC rule not met
